- experimental.target: human PD-L1 (human) (UniProt Q9NZQ7)
- Sequence (Q9NZQ7 19-290): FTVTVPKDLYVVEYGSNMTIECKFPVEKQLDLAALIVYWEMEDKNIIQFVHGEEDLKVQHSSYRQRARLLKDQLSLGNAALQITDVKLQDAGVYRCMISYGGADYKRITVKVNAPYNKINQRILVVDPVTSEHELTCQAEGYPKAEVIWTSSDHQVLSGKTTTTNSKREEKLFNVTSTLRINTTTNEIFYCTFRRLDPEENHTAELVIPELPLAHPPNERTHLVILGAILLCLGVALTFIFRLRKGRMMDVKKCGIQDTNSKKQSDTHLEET
- test.method.notes: flow cytometry, CHO cells expressing huPD-L1
reported.endpoint: MFI at 33.3 nM (MFI)
Response body: numeric value in MFI, unit text excluded.

Documented MFI at 33.3 nM of variant CD80 IgV-Fc H18Y/E35D/M47L (Fc fusion) VIHVTKEVKEVATLSCGYNVSVEELAQTRIYWQKDKKMVLTMMSGDLNIWPEYKNRTIFDITNNLSIVILALRPSDEGTYECVVLKYEKDAFKREHLAEVTLSVKAD : 44200

Kindly note the recorded MFI at 33.3 nM for variant CD80 IgV-Fc Y31S/E35D/M47L/T79L/E88G (Fc fusion) VIHVTKEVKEVATLSCGHNVSVEELAQTRISWQKDKKMVLTMMSGDLNIWPEYKNRTIFDITNNLSIVILALRPSDEGLYECVVLKYGKDAFKREHLAEVTLSVKAD , which is 38900

Short answer for variant CD80 IgV-Fc A26E/Q33R/E35D/M47L/L85Q/K86E (Fc fusion) VIHVTKEVKEVATLSCGHNVSVEELEQTRIYWRKDKKMVLTMMSGDLNIWPEYKNRTIFDITNNLSIVILALRPSDEGTYECVVQEYEKDAFKREHLAEVTLSVKAD : MFI at 33.3 nM was 76000

The binder identified as variant CD80 IgV-Fc E35D/D46V/M47L/V68M/L85Q (Fc fusion) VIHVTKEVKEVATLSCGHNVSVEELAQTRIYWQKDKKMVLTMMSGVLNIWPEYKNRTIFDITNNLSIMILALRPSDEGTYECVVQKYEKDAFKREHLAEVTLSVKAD registered its MFI at 33.3 nM at 28400

Origin of the recorded values: patent US20220177587A1
